# target-of-assay: T1, His-tagged P3028 (human, also: His-tag, terminus and sequence not given here)
# T1 construct: in solution at 0.5 ug/mL over the peptide cards; found with anti-His-tag antibody and rabbit anti-mouse peroxidase (rampo); also called PGE73; not shown: His-tag
# T1 peptide: VFDEFKPLVEEPQNLIK
# protocol-summary: PEPSCAN chip ELISA, His-P3028 in solution;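 note: score is the raw OD at 405 nm from peroxidase colour with ABTS, imaged by CCD camera before and after staining, with wells showing air bubbles set to zero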
No end group written: not given here.
What RAMPO Score was measured for each of the following?
One number for each entry, in rampo score.

Examples from the recorded data:
{"binder": "KKLDTFFVKLSLFCER [SEQ ID NO 520]", "recorded-result": 254}
{"binder": "KKLDTFFVKLSLFNER [SEQ ID NO 382]", "recorded-result": 599}
{"binder": "KYLDTFFVKLSLFTER [SEQ ID NO 494]", "recorded-result": 301}

Below is a list of binders. For each, state its recorded RAMPO Score.
1. KKEDTFFVKLSLFTER [SEQ ID NO 5]
2. KKLDTFFVKLSNFTER [SEQ ID NO 354]

Response given:
1. 528
2. 462

Below is a list of binders. For each, state its recorded RAMPO Score.
1. KKLRTFFVKLSLFTER [SEQ ID NO 480]
2. KKLDTFFVKWSLFTER [SEQ ID NO 482]
3. KKLDTWFVKLSLFTER [SEQ ID NO 444]
4. KKYDTFFVKLSLFTER [SEQ ID NO 452]
5. KKLYTFFVKLSLFTER [SEQ ID NO 303]
6. KKLDTFFVKLSWFTER [SEQ ID NO 360]
7. WKLDTFFVKLSLFTER [SEQ ID NO 507]

Response given:
1: 317; 2: 316; 3: 348; 4: 344; 5: 422; 6: 409; 7: 284

Below is a list of binders. For each, state its recorded RAMPO Score.
1. KKLDTFFVKLSLFTPR [SEQ ID NO 439]
2. KKLDTFFLKLSLFTER [SEQ ID NO 328]
3. KKLQTFFVKLSLFTER [SEQ ID NO 448]
4. KKLDTFFVKHSLFTER [SEQ ID NO 502]
5. KKLDTFFVKLSLFHER [SEQ ID NO 378]
6. KKLDTFFVKLSLQTER [SEQ ID NO 370]

Response given:
[351, 411, 345, 293, 463, 1140]

Below is a list of binders. For each, state its recorded RAMPO Score.
1. KKLPTFFVKLSLFTER [SEQ ID NO 435]
2. KKLDTFFVKLSLPTER [SEQ ID NO 26]
3. YKLDTFFVKLSLFTER [SEQ ID NO 483]
4. KKNDTFFVKLSLFTER [SEQ ID NO 292]

Response given:
[364, 696, 315, 374]
